- Tested on: 292921-168-R-J2-PDC complex spheroid growth
- assayMethodText: Anticancer human tumor 292921-168-R-J2-PDC patient-derived pancreatic carcinoma cell line growth inhibition [AhR]
- conditionDetails: second compound 0.1 µM; first compound 3.16 µM; stronger effect = lower value
Exercise: state measured viability, T/C for each of the compounds provided.
One number for each entry, in %.

compound="CC(C)c1c(-c2ccccc2)nc2c(C#N)c[nH]n2c1=O + CC(CO)NC(=O)c1cc(-c2ccc(Cl)cc2)nn(-c2cnn(C)c2)c1=O" tgt="292921-168-R-J2-PDC complex spheroid growth" resulttype="viability, T/C" measurement=109

I'm hoping you can list viability, T/C for every compound here, please.
1. CC1COCCN1c1cc(C2(S(C)(=N)=O)CC2)nc(-c2ccnc3[nH]ccc23)n1 (stereo not drawn) + Cc1ccccc1N=Nc1ccc(NC(=O)c2ccnn2C)c(C)c1
2. COc1cc(Nc2ncc3c(n2)-c2ccc(Cl)cc2C(c2c(F)cccc2OC)=NC3)ccc1C(=O)O + Cc1ccccc1N=Nc1ccc(NC(=O)c2ccnn2C)c(C)c1

[45.6, 39.8]

* * *

- System: 292921-168-R-J2-PDC complex spheroid growth
- assayMethodText: Anticancer human tumor 292921-168-R-J2-PDC cell line growth inhibition [AhR];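 also: spheroids exposed to compounds for seven days after three days of growth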
- conditionDetails: second compound 1 µM; first compound 0.316 µM; stronger effect = lower value
Label scheme, based on viability, T/C: bin 0 = under 50%, bin 1 = from 50% up to 80%, bin 2 = 80% and over

molecule="Nc1ncn(C2CC(O)C(CO)O2)c(=O)n1 (stereo not drawn) + Cc1ccccc1N=Nc1ccc(NC(=O)c2ccnn2C)c(C)c1" grouplabel="bin 1"
molecule="CC1COCCN1c1cc(C2(S(C)(=N)=O)CC2)nc(-c2ccnc3[nH]ccc23)n1 (stereo not drawn) + Cc1ccccc1N=Nc1ccc(NC(=O)c2ccnn2C)c(C)c1" grouplabel="bin 2"

Which class holds Nc1ccn(C2OC(CO)C(O)C2(F)F)c(=O)n1 (stereo not drawn) + Cc1ccccc1N=Nc1ccc(NC(=O)c2ccnn2C)c(C)c1 ?
bin 0

Which class holds NS(=O)(=O)OCC1CC(n2ccc3c(NC4CCc5ccccc54)ncnc32)CC1O (stereo not drawn) + CC(CO)NC(=O)c1cc(-c2ccc(Cl)cc2)nn(-c2cnn(C)c2)c1=O ?
bin 0

Which class holds Nc1ccn(C2OC(CO)C(O)C2(F)F)c(=O)n1 (stereo not drawn) + Cc1cncc(-c2nc(NCCc3c[nH]c4ccccc34)c3ncn(C(C)C)c3n2)c1 ?
bin 0

* * *

- Tested on: 292921-168-R-J2-PDC complex spheroid growth
- assayMethodText: Anticancer human tumor 292921-168-R-J2-PDC cell line growth inhibition [AhR];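 also: spheroids exposed to compounds for seven days after three days of growth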
- conditionDetails: second compound 0.316 µM; first compound 0.00949 µM; stronger effect = lower value
Exercise: state measured viability, T/C for each of the compounds provided.
Numbers only, in %.

Illustrative cases are given below, each with its answer.
compound="CC(C)CC(NC(=O)C(Cc1ccccc1)NC(=O)c1cnccn1)B(O)O (stereo not drawn) + CC(CO)NC(=O)c1cc(-c2ccc(Cl)cc2)nn(-c2cnn(C)c2)c1=O" measurement=11.8
compound="Nc1ncn(C2CC(O)C(CO)S2)c(=O)n1 (stereo not drawn) + Cc1cncc(-c2nc(NCCc3c[nH]c4ccccc34)c3ncn(C(C)C)c3n2)c1" measurement=88.2

Could you now look at the following compound, please?
Look up and state reported viability, T/C for O=C(C=Cn1cnc(-c2cc(C(F)(F)F)cc(C(F)(F)F)c2)n1)NNc1cnccn1 + CC(CO)NC(=O)c1cc(-c2ccc(Cl)cc2)nn(-c2cnn(C)c2)c1=O
84.6

* * *

- Tested on: 292921-168-R-J2-PDC complex spheroid growth
- assayMethodText: Anticancer human tumor 292921-168-R-J2-PDC cell line growth inhibition [AhR];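 also: spheroids exposed to compounds for seven days after three days of growth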
- conditionDetails: curve of first compound; second compound 1 µM
# condition met = IC50 below 400 nM (exclusive); condition not met = IC50 at/above 400 nM

Reference set (5 entries):
molecule="COc1ccc([C@@H](O)c2cc(-c3ncnc4cc(N5CCOCC5)ccc34)c(F)cc2Cl)nn1 + CC(CO)NC(=O)c1cc(-c2ccc(Cl)cc2)nn(-c2cnn(C)c2)c1=O" grouplabel="condition not met"
molecule="CC[C@@]1(O)C(=O)OCc2c1cc1n(c2=O)Cc2cc3c(CN(C)C)c(O)ccc3nc2-1 + CC(CO)NC(=O)c1cc(-c2ccc(Cl)cc2)nn(-c2cnn(C)c2)c1=O" grouplabel="condition met"
molecule="NS(=O)(=O)OCC1CC(n2ccc3c(NC4CCc5ccccc54)ncnc32)CC1O (stereo unspecified) + CC(CO)NC(=O)c1cc(-c2ccc(Cl)cc2)nn(-c2cnn(C)c2)c1=O" grouplabel="condition met"
molecule="COc1cc(Nc2ncc3c(n2)-c2ccc(Cl)cc2C(c2c(F)cccc2OC)=NC3)ccc1C(=O)O + CC(CO)NC(=O)c1cc(-c2ccc(Cl)cc2)nn(-c2cnn(C)c2)c1=O" grouplabel="condition met"
molecule="CC1COCCN1c1cc(C2(S(C)(=N)=O)CC2)nc(-c2ccnc3[nH]ccc23)n1 (stereo unspecified) + Cc1cncc(-c2nc(NCCc3c[nH]c4ccccc34)c3ncn(C(C)C)c3n2)c1" grouplabel="condition not met"

Just wondering, is IC50 of COc1cc(C2c3cc4c(cc3C(OC3OC5COC(C)OC5C(O)C3O)C3COC(=O)C23)OCO4)cc(OC)c1O (stereo unspecified) + Cc1ccccc1N=Nc1ccc(NC(=O)c2ccnn2C)c(C)c1 below 400 nM?
condition met

* * *

- System: 292921-168-R-J2-PDC complex spheroid growth
- assayMethodText: Anticancer human tumor 292921-168-R-J2-PDC cell line growth inhibition [AhR];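 also: spheroids exposed to compounds for seven days after three days of growth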
- conditionDetails: second compound 0.1 µM; first compound 0.001 µM; stronger effect = lower value
resultType: viability, T/C (%)
Answers are plain numbers, in %.

Illustrative cases are given below, each with its answer.
compound="CC[C@@]1(O)C(=O)OCc2c1cc1n(c2=O)Cc2cc3c(CN(C)C)c(O)ccc3nc2-1 + CC(CO)NC(=O)c1cc(-c2ccc(Cl)cc2)nn(-c2cnn(C)c2)c1=O" resulttype="viability, T/C" measurement=99.9
compound="CC[C@@]1(O)C(=O)OCc2c1cc1n(c2=O)Cc2cc3c(CN(C)C)c(O)ccc3nc2-1 + Cc1ccccc1N=Nc1ccc(NC(=O)c2ccnn2C)c(C)c1" resulttype="viability, T/C" measurement=90.8
compound="Cn1ncnc1C1c2n[nH]c(=O)c3cc(F)cc(c23)NC1c1ccc(F)cc1 (stereo unspecified) + Cc1ccccc1N=Nc1ccc(NC(=O)c2ccnn2C)c(C)c1" resulttype="viability, T/C" measurement=83

I'm hoping you can list viability, T/C for every compound here, please.
1. CC[C@@]1(O)C(=O)OCc2c1cc1n(c2=O)Cc2cc3c(CN(C)C)c(O)ccc3nc2-1 + Cc1cncc(-c2nc(NCCc3c[nH]c4ccccc34)c3ncn(C(C)C)c3n2)c1
2. Cn1ncnc1C1c2n[nH]c(=O)c3cc(F)cc(c23)NC1c1ccc(F)cc1 (stereo unspecified) + Cc1cncc(-c2nc(NCCc3c[nH]c4ccccc34)c3ncn(C(C)C)c3n2)c1
3. Cn1ncnc1C1c2n[nH]c(=O)c3cc(F)cc(c23)NC1c1ccc(F)cc1 (stereo unspecified) + CC(CO)NC(=O)c1cc(-c2ccc(Cl)cc2)nn(-c2cnn(C)c2)c1=O

1: 90.4; 2: 96.7; 3: 109

* * *

Exercise: state measured viability, T/C for each of the compounds provided.
- Test system: 292921-168-R-J2-PDC complex spheroid growth
- assayMethodText: Anticancer human tumor 292921-168-R-J2-PDC cell line growth inhibition [AhR];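 also: spheroids exposed to compounds for seven days after three days of growth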
- conditionDetails: second compound 1 µM; first compound 0.949 µM; stronger effect = lower value
Numbers only, in %.

compound="O=C(C=Cn1cnc(-c2cc(C(F)(F)F)cc(C(F)(F)F)c2)n1)NNc1cnccn1 + Cc1cncc(-c2nc(NCCc3c[nH]c4ccccc34)c3ncn(C(C)C)c3n2)c1" measurement=24.6

I'm hoping you can list viability, T/C for every compound here, please.
1. CCN(c1cc(-c2ccc(CN3CCOCC3)cc2)cc(C(=O)NCc2c(C)cc(C)[nH]c2=O)c1C)C1CCOCC1 + CC(CO)NC(=O)c1cc(-c2ccc(Cl)cc2)nn(-c2cnn(C)c2)c1=O
2. CCN(c1cc(-c2ccc(CN3CCOCC3)cc2)cc(C(=O)NCc2c(C)cc(C)[nH]c2=O)c1C)C1CCOCC1 + Cc1cncc(-c2nc(NCCc3c[nH]c4ccccc34)c3ncn(C(C)C)c3n2)c1
3. O=C(C=Cn1cnc(-c2cc(C(F)(F)F)cc(C(F)(F)F)c2)n1)NNc1cnccn1 + CC(CO)NC(=O)c1cc(-c2ccc(Cl)cc2)nn(-c2cnn(C)c2)c1=O
4. O=C(C=Cn1cnc(-c2cc(C(F)(F)F)cc(C(F)(F)F)c2)n1)NNc1cnccn1 + Cc1ccccc1N=Nc1ccc(NC(=O)c2ccnn2C)c(C)c1
5. CCN(c1cc(-c2ccc(CN3CCOCC3)cc2)cc(C(=O)NCc2c(C)cc(C)[nH]c2=O)c1C)C1CCOCC1 + Cc1ccccc1N=Nc1ccc(NC(=O)c2ccnn2C)c(C)c1

95.5
75.4
19.1
13
85.7

Source of measurements: PubChem BioAssay AID1918994
